These entries and their values trace back to the DeepSol protein solubility set.

assay: soluble on expression in E. coli; label from the status in PepcDB or PDB records
ASSAY_READOUT: soluble on expression in E. coli

| QUERY_SEQUENCE | RESULT |
| --- | --- |
| MLANFSQKAQETLVGELEELVSTTNLKGVITYCNDAFCRVAEYTHEELVGQNHNIVRHSDMPKAAFGDMWARLKEGKAWRGMVKNSTKSGGYYWVDAYVTPIYEKNQVVGYQSVRVKPKREWVDIAAKAYKGMLAAEKAGRTWSLKINETVRYAILLGALTAPAVAYALSVEGPLAWLASALPASVLALLFRQELIDTPQQLKKLQKQYDSVSRLIYSGNSAFSIADFHIKMLSARIRTVLGRMTDSALPLQNCAEELSQTTSEVSAALNQQNSDIRRVRDATQEVESSANSVSSSTNDAHMLIDDTLKSCMMAKETIDQTHTNLAQLSLQA | not soluble |
| MVKVGIIGGSGLEDPNILLDPVTVAVDTPYGKPSDDVVEGTINGVECVLLARHGRKHDIMPGNVNFRANLWALYSRGVDVIIASTACGSLQENVEPGHLLFPDSVFDRTTGRQSTFFDGSYDQAPGVCHIQAHPTYNEKLRQVLISTAERCQLVHHRTGFGVCIEGPRFSTKAESMVFKSWGASLVNMTMMPECILAKELGIPYATTALVTDYDCWKEEDHVTASSVMKVFAANVEKAKTLFVEAVGEIGKIDWSAEILKLKTEARESVMISPDVVIPFLTTDNQKKF | not soluble |
| MGSDKIHHHHHHMNETSSYTIEEVAGLLKVSKLTVYDLIKKGVLPAYRVGRQMRVDEEDLKQYKTNMRMSQPIAAKEAPKQVQEAEPDGRPNVMISGQDISMDILSKHLENAIQETPLRKYKGSLNSLIDMYQGKCDIVSLHLYDAETGQYNAPYVKRILTGEPFCLINVVLRKAGLYVQKGNPKNIQGWKDLKRADIRIINREKGSGARVLLDEQLGLLGVNPADVVGYGDIVTDHYAAASQVSSGQADAGIGAQHAAHMGSVDFIPLIDEQYDIVVLKKNEQLLKAVKEILNSEDYKANLSHLNGYETKLTGKVILET | not soluble |
